Target: HLA-A*02:01
Assay: IEDB peptide-MHC binding, purified MHC/competitive/radioactivity; filed as Kd, often an IC50 or EC50 that approximates it; bounds were set here for any values at or beyond the usual limits of such assays
Details: source organism: Hepatitis C virus subtype 2b
Metric: pKd
Friendly reminder that pKd comes from taking -log10 of the concentration in mol/L.

// returns pKd for "SISGVLWQV" with HLA-A*02:01; value = 7.44

----------
Target: HLA-A*31:01
Assay: IEDB peptide-MHC binding, purified MHC/direct/fluorescence; filed as Kd, often an IC50 or EC50 that approximates it; bounds were set here for any values at or beyond the usual limits of such assays
Conditions: source organism: Giardia intestinalis
Metric: Kd

Kd reported for this sequence "GYTPGQQFY" : ≥ 20 µM

----------
Target: HLA-A*02:01
Assay: IEDB peptide-MHC binding, purified MHC/competitive/fluorescence; filed as Kd, often an IC50 or EC50 that approximates it; bounds were set here for any values at or beyond the usual limits of such assays
Conditions: source organism: Vaccinia virus WR
Metric: pKd
When answering, recall that pKd equals minus log10 of the concentration in mol/L, and write that number alone.

For this sequence ( "KIEIERKKL" ), measured pKd is 6.37

----------
Biological target: HLA-B*08:01
Experiment: IEDB peptide-MHC binding, purified MHC/direct/fluorescence; filed as Kd, often an IC50 or EC50 that approximates it; bounds were set here for any values at or beyond the usual limits of such assays
Conditions: source organism: Escherichia coli O157:H7
pKd: −log10 of the molar value.
Metric: pKd

Record for "PSSKPDWFY" under target or system HLA-B*08:01: pKd reported as ≤ 4.70

----------
Target: HLA-A*02:01
Test: IEDB peptide-MHC binding, purified MHC/direct/fluorescence; filed as Kd, often an IC50 or EC50 that approximates it; bounds were set here for any values at or beyond the usual limits of such assays
Settings: source organism: Escherichia coli O157:H7
Metric: Kd

Readout Kd for "PSSKPDWFY" , test system HLA-A*02:01, was ≥ 20 µM

----------
Target: HLA-B*46:01
Assay: IEDB peptide-MHC binding, purified MHC/direct/fluorescence; filed as Kd, often an IC50 or EC50 that approximates it; bounds were set here for any values at or beyond the usual limits of such assays
Conditions: source organism: Dengue virus
Metric: Kd

Value of measured Kd for the entry "KLEGKIVQY" : ≥ 20 µM

----------
Target: HLA-A*02:01
Assay: IEDB peptide-MHC binding, purified MHC/direct/fluorescence; filed as Kd, often an IC50 or EC50 that approximates it; bounds were set here for any values at or beyond the usual limits of such assays
Conditions: source organism: Lake Victoria marburgvirus - Popp
Metric: Kd

// Kd value for "GELRKAICL" : ≥ 20 µM

----------
Biological target: HLA-A*26:01
Test: IEDB peptide-MHC binding, purified MHC/competitive/fluorescence; filed as Kd, often an IC50 or EC50 that approximates it; bounds were set here for any values at or beyond the usual limits of such assays
Details: source organism: Salmonella enterica subsp. enterica serovar Paratyphi A str. AKU_12601
pKd: −log10 of the molar value.
Metric: pKd

Observed pKd, HLA-A*26:01, "AMDTHLYFE" : ≤ 4.70

----------
Molecular target: HLA-A*24:03
Assay: IEDB peptide-MHC binding, purified MHC/direct/fluorescence; filed as Kd, often an IC50 or EC50 that approximates it; bounds were set here for any values at or beyond the usual limits of such assays
Conditions: source organism: Influenza A virus (A/Memphis/1/1986(H3N2))
Metric: Kd

Notebook: "NHDGIQAGV" , Kd read as ≥ 20 µM

----------
Target: HLA-A*24:03
Assay: IEDB peptide-MHC binding, purified MHC/competitive/fluorescence; filed as Kd, often an IC50 or EC50 that approximates it; bounds were set here for any values at or beyond the usual limits of such assays
Details: source organism: Escherichia coli
Metric: pKd
Schema: pKd number; meaning minus log10 of the concentration expressed in molar units.

Value of measured pKd for the entry "QYVLMPGKV" : 5.59

----------
Target: HLA-A*31:01
Assay: IEDB peptide-MHC binding, purified MHC/competitive/radioactivity; filed as Kd, often an IC50 or EC50 that approximates it; bounds were set here for any values at or beyond the usual limits of such assays
Details: source organism: Dengue virus 4 Dominica/814669/1981
Item-by-item account of Kd
Write it as a number; the unit nM goes unstated.

• LMTLMKGASR = 72.6

Next item in the queue.
"LMIVAKHER" tested on HLA-A*31:01 gave Kd: 49.8

----------
Entries and their pKd values follow.
Target: HLA-A*02:01
Test: IEDB peptide-MHC binding, purified MHC/competitive/radioactivity; filed as Kd, often an IC50 or EC50 that approximates it; bounds were set here for any values at or beyond the usual limits of such assays
Details: source organism: Dengue virus 4 Philippines/H241/1956
Please keep in mind that pKd is minus log10 of the molar concentration; only the number is needed.

• TLMLVALLGA = 8.27

# next sequence below
Quick note, pKd for "TLLCLIPTA" landed at 8.24

----------
Biological target: HLA-A*02:01
Experiment: IEDB peptide-MHC binding, purified MHC/direct/fluorescence; filed as Kd, often an IC50 or EC50 that approximates it; bounds were set here for any values at or beyond the usual limits of such assays
Settings: source organism: Vibrio cholerae
Metric: Kd

- GKFFAQAFL: ≥ 20 µM

Proceeding to the next sequence to report its Kd.
The reported Kd of the sequence "SVMPAWQEK" was ≥ 20 µM

----------
Recorded pKd for the following sequences
Target: HLA-A*30:02
Assay: IEDB peptide-MHC binding, purified MHC/competitive/radioactivity; filed as Kd, often an IC50 or EC50 that approximates it; bounds were set here for any values at or beyond the usual limits of such assays
Details: source organism: Dengue virus 4 Philippines/H241/1956
Conceptually, pKd converts a concentration in mol/L into minus its log10.

• ILGAQALPVY = 7.09
• EMCEDTVTY = 4.84

Below: the item to evaluate.
Noted for "VHSWEDIPY" : its pKd reads 5.47

----------
Target: HLA-B*58:01
Assay: IEDB peptide-MHC binding, purified MHC/direct/fluorescence; filed as Kd, often an IC50 or EC50 that approximates it; bounds were set here for any values at or beyond the usual limits of such assays
Settings: source organism: Shigella sonnei Ss046
Metric: Kd

// "VLDMGDPVK" : Kd value = ≥ 20 µM

----------
Target: HLA-A*23:01
Test: IEDB peptide-MHC binding, purified MHC/direct/fluorescence; filed as Kd, often an IC50 or EC50 that approximates it; bounds were set here for any values at or beyond the usual limits of such assays
Conditions: source organism: Influenza A virus (A/England/654/2007(H1N1))
pKd: −log10 of the molar value.
Metric: pKd

The measured pKd associated with "WTGMVDGWY" reads ≤ 4.70

----------
Target: HLA-A*01:01
Experiment: IEDB peptide-MHC binding, purified MHC/direct/fluorescence; filed as Kd, often an IC50 or EC50 that approximates it; bounds were set here for any values at or beyond the usual limits of such assays
Settings: source organism: Vibrio parahaemolyticus
Metric: Kd

Entry "IRSCWRYRK" : Kd on HLA-A*01:01 = ≥ 20 µM

----------
Target: HLA-A*03:01
Assay: IEDB peptide-MHC binding, purified MHC/competitive/radioactivity; filed as Kd, often an IC50 or EC50 that approximates it; bounds were set here for any values at or beyond the usual limits of such assays
Conditions: source organism: Lymphocytic choriomeningitis virus (strain Armstrong)
Metric: pKd
Just so you know, pKd here is -log10 of the concentration in molar units; reply with that number alone.

- NGQFIHFYR: 5.08

Now look at this one.
Reported pKd ( "IYKGVYQFK" ) = 6.70

----------
Target: HLA-B*53:01
Assay: IEDB peptide-MHC binding, purified MHC/competitive/radioactivity; filed as Kd, often an IC50 or EC50 that approximates it; bounds were set here for any values at or beyond the usual limits of such assays
Conditions: source organism: Triticum aestivum
Metric: pKd
Quick note: pKd values are minus log10 of concentrations in mol/L.

I looked up "FPSQQPYL" and its pKd for HLA-B*53:01 was 6.49

----------
Target: HLA-B*08:01
Experiment: IEDB peptide-MHC binding, purified MHC/competitive/fluorescence; bounds were set here for any values at or beyond the usual limits of such assays
Details: source organism: Monodelphis domestica
Metric: IC50
Please format your answer as a value with the unit trailing.

The sequence listed as "LEYFQFVKKLL" has a reported IC50 of 2400 nM

----------
Target: HLA-A*26:02
Assay: IEDB peptide-MHC binding, purified MHC/competitive/fluorescence; filed as Kd, often an IC50 or EC50 that approximates it; bounds were set here for any values at or beyond the usual limits of such assays
Details: source organism: Orthomarburgvirus marburgense
pKd: −log10 of the molar value.
Metric: pKd

Looking up "IHLDKGGQF" , I found its pKd recorded as ≤ 4.70
